The reported measurements were obtained from the Deep4Chem optical property database.

// values below are reported emission maximum
assay: solvent given as SMILES; settings: in ClC(Cl)Cl
A number alone suffices; assume nm.

Example compounds with recorded emission maximum:
| Compound | Readout unit | Reading |
| --- | --- | --- |
| COc1ccc(-n2c3c4ccccc4nc(-c4ccc(C#N)cc4)c3c3c2c2c(-c4ccc(C#N)cc4)nc4ccccc4c2n3-c2ccc(OC)cc2)cc1 | nm | 513 |
| Fc1ccc(C2=NC(c3ccccc3)C(N(c3ccccc3)c3ccccc3)S2)cc1 (stereo not drawn) | nm | 461 |
| COc1ccc(-c2nc(-c3ccc(C)cc3)c3ccccn23)cc1 | nm | 521 |
| CCC1=C(C)C2=C(c3cc(C(=O)Cl)cc(C4=C5C(C)=C(CC)C(C)=[N+]5[B-](F)(F)n5c(C)c(CC)c(C)c54)c3)c3c(C)c(CC)c(C)n3[B-](F)(F)[N+]2=C1C | nm | 562 |
| c1ccc2c(c1)Oc1ccccc1C21c2cc(-c3ccc4ccc5cccc6ccc3c4c56)ccc2-c2ccc(-c3ccc4ccc5cccc6ccc3c4c56)cc21 | nm | 422 |
| CC(=O)c1ccc(-c2nc3ccc(N(C)C)cc3s2)cc1 | nm | 524 |
| N#Cc1ccc(C#Cc2ccc(C#Cc3ccccc3C#N)cc2C#N)cc1 | nm | 370 |
| O=C1[C@@H]2[C@H](C(=O)N1c1cccc3cc4ccccc4cc13)[C@H]1C[C@@H]2c2c1c(-c1ccccc1)c1ccccc1c2-c1ccccc1 | nm | 392 |
| COc1ccc2cc(C3=[N+]4C(=Nc5c(-c6ccccc6)cc(-c6ccc7cc(OC)ccc7c6)n5[B-]4(F)F)C(c4ccccc4)=C3)ccc2c1 | nm | 733 |
| CCc1c(CC)c2n(c1C)[B-](F)(F)[N+]1=C(C)c3cc4c(cc3C1=C2)=[N+]1C(=Cc2c(CC)c(CC)c(C)n2[B-]1(F)F)C=4C | nm | 774 |

--- query ---
Noted for CCCCCCCC(=O)Oc1ccc2c3cccc4c(OC(=O)CCCCCCC)ccc(c5cccc1c52)c43 : its emission maximum reads 456.01

---

assay: solvent given as SMILES; conditions: in Cc1ccccc1
Label Condition met when emission maximum is strictly below 500 nm; otherwise label Condition not met.

| Molecule | Group |
| --- | --- |
| CCOC(=O)/C(C#N)=C\c1ccc2c(c1)c1ccccc1n2-c1ccc(OC)cc1 | Condition met |
| N#CC(C#N)=Cc1nc2ccc(C#Cc3ccc(N(c4ccccc4)c4ccccc4)cc3)cc2s1 | Condition not met |

Strictly below 500 nm: is that where emission maximum of COc1ccc(-c2ccc3c(c2)c2cc(-c4ccc(OC)cc4)ccc2n3-c2ccc(C(=O)c3ccc4sc5ccccc5c4c3)cc2)cc1 sits?
Condition met

Consider O=P1(c2ccccc2)c2cc(N3c4ccccc4Oc4ccccc43)ccc2-c2ccc(N3c4ccccc4Oc4ccccc43)cc21 . Does its emission maximum lie strictly below 500 nm?
Condition not met

A record lists c1ccc(-c2nc(-c3ccccc3)nc(-c3ccc(N4c5ccccc5C5(c6ccccc64)c4ccccc4C4(c6ccccc6-c6ccccc64)c4ccccc45)cc3)n2)cc1 . Is its emission maximum below 500 nm?
Condition met

# TODO verify emission maximum < 500 nm strictly for this molecule: CCC1=C(C)C2=Cc3c4ccccc4c4n3[B-](c3ccncc3)(Oc3ccccc3-4)[N+]2=C1C (stereo not drawn)
Condition not met

Below 500 nm on emission maximum? Entry c1cc2ccc3ccc4cc3c2cc1c1ccc2ccc3ccc(cc3c2c1)c1ccc2c(c1)c1cc4ccc1[C@]13OCCO[C@]21OCCO3
Condition met

Please check: emission maximum for C[Si](C)(C)C#Cc1cc2ccc3cc(C#C[Si](C)(C)C)cc4ccc(c1)c2c34 , strictly under 500 nm or not?
Condition met

Check if emission maximum falls below 500 nm for O=S1(=O)C2=C(c3ccc(N(c4ccccc4)c4ccccc4)cc31)C1(C3=C(c4ccccc41)S(=O)(=O)c1cc(N(c4ccccc4)c4ccccc4)ccc13)c1ccccc12 .
Condition not met

In the record for Cc1ccc2c(c1)C1(c3ccccc3-c3ccccc31)c1cc(C)ccc1N2c1ccc(-c2nc(-c3ccccc3)cc(-c3ccccc3)n2)cc1 , is emission maximum less than 500 nm?
Condition met

Does this molecule meet the criterion emission maximum < 500 nm? COc1ccc(C2=[N+]3C(=Nc4c(-c5cc(OC)c(OC)c(OC)c5Br)c(-c5ccc(C(C)(C)C)cc5)c(-c5ccc(OC)cc5)n4[B-]3(F)F)C(c3cc(OC)c(OC)c(OC)c3Br)=C2c2ccc(C(C)(C)C)cc2)cc1
Condition not met

I'd appreciate it if you could check whether CCn1c2ccccc2c2cc(C#Cc3cc(C#Cc4ccc5c(c4)c4ccccc4n5CC)ncn3)ccc21 has emission maximum smaller than 500 nm.
Condition met

Quick check: emission maximum of Oc1ccccc1/N=C/c1ccccc1Oc1ccccc1 under 500 nm?
Condition met

Is it true that emission maximum reported for c1ccc(-c2nc(-c3ccccc3)nc(-c3ccc(-n4c5ccccc5c5cc6c(cc54)C(c4ccccc4)(c4ccccc4)c4ccccc4-6)cc3)n2)cc1 is less than 500 nm?
Condition met

Lab note: emission maximum threshold 500 nm. Does this molecule come in strictly under it? CC1=CC(C)=[N+]2C1=C(c1ccccc1)c1c(C)c(-c3cccs3)c(C)n1[B-]2(F)F
Condition not met
